Biological target: T1, L1-CAM recombinant protein (His Tag), human (human, UniProt P32004 20-1120)
T1 construct: Bought protein; also called CD171; human L1-CAM; not shown: His tag
T1 sequence (P32004 20-1120 limits assumed): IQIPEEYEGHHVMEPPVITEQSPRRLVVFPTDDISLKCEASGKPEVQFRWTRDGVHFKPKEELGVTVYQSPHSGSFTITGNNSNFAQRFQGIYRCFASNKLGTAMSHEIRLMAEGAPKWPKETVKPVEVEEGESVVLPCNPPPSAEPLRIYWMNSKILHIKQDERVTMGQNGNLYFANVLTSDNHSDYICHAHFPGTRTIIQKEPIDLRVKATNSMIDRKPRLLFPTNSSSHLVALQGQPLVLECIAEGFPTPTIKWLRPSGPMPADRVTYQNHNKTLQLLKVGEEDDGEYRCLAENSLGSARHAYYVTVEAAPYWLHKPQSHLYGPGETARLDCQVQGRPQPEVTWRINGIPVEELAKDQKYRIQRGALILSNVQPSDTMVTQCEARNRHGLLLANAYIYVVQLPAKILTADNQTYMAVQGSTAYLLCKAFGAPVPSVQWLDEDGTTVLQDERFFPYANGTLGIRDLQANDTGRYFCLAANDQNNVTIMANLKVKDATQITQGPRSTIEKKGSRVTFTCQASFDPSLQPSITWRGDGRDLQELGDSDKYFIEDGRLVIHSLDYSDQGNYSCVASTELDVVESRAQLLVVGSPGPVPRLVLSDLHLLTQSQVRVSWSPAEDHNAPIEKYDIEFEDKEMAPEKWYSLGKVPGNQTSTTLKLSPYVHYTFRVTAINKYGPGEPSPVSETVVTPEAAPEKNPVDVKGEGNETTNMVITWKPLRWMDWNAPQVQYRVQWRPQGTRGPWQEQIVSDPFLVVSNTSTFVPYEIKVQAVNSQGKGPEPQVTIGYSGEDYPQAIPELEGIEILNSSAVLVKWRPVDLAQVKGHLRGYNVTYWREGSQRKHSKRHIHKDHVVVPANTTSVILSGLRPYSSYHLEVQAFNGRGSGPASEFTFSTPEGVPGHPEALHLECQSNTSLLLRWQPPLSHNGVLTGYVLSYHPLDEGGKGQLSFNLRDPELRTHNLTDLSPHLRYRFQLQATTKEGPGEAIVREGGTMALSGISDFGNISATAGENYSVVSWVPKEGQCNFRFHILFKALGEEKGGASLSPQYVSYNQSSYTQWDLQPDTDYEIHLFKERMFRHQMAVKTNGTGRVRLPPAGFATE
Experiment: ELISA, human L1-CAM coated at 2 µg/ml

# BINDER, ENDPOINT UNIT, EC50
records = [
    ("Deglycosylated cHCE7 (antibody, V domains shown, deglycosylated (so in the source); site and method not stated for this sample, also called cHCE7 degly; cHCE7 deglycosylated) VH: QVQLQQPGAELVKPGASVKLSCKASGYTFTGYWMHWVKQRPGHGLEWIGEINPSNGRTNYNERFKSKATLTVDKSSTTAFMQLSGLTSEDSAVYFCARDYYGTSYNFDYWGQGTTLTVSS VL: DIQMTQSSSSFSVSLGDRVTITCKANEDINNRLAWYQQTPGNSPRLLISGATNLVTGVPSRFSGSGSGKDYTLTITSLQAEDFATYYCQQYWSTPFTFGSGTELEIK", "mg/L", 0.0131),
    ("CE7-variant8 (antibody, V domains shown, Human IgG1 kappa, L234A L235A P331S; also called CE7-12-VHB-1NL1-VLB; humanized variant 8) VH: QVQLVQSGAEVKKPGASVKVSCKASGYTFTGYWMHWVRQAPGQGLEWIGEINPSNGRTNYNERFQGRVTLTVDKSISTAYMELSRLRSDDTAVYYCARDYYGTSYNFDYWGQGTLVTVSS VL: DIQMTQSPSSLSASVGDRVTITCRANEDINNRLAWYQQKPGKAPKLLISGATNLVTGVPSRFSGSGSGKDYTLTISSLQPEDFATYYCQQYWSTPFTFGQGTKLEIKR", "mg/L", 0.0129),
    ("CE7-variant26 (antibody, V domains shown, CE7-1-2-VHD + CE7-1-NL1-VLB; human IgG1 kappa, L234A L235A P331S N297A (aglycosylated); also called humanized variant 26) VH: QVQLVQSGAEVKKPGASVKVSCKASGYTFTGYWMHWVRQAPGQGLEWMGEINPSNGRTNYNEKFQGRVTLTVDKSISTAYMELSRLRSDDTAVYYCARDYYGTSYNFDYWGQGTLVTVSS VL: DIQMTQSPSSLSASVGDRVTITCRANEDINNRLAWYQQKPGKAPKLLISGATNLVTGVPSRFSGSGSGKDYTLTISSLQPEDFATYYCQQYWSTPFTFGQGTKLEIKR", "mg/L", 0.0127),
    ("CE7-variant21 (antibody, V domains shown, CE7-1-2-VHC + CE7-1-NL1-VLA; human IgG1 kappa, L234A L235A P331S N297A (aglycosylated); also called humanized variant 21) VH: QVQLVQSGAEVKKPGASVKVSCKASGYTFTGYWMHWVRQAPGQGLEWIGEINPSNGRTNYNEKFQGRVTLTVDKSISTAYMELSRLRSDDTAVYYCARDYYGTSYNFDYWGQGTLVTVSS VL: DIQMTQSPSSLSASVGDRVTITCKANEDINNRLAWYQQKPGKAPKLLISGATNLVTGVPSRFSGSGSGKDYTLTISSLQPEDFATYYCQQYWSTPFTFGQGTKLEIKR", "mg/L", 0.0299),
    ("CE7-variant11 (antibody, V domains shown, Human IgG1 kappa, L234A L235A P331S; also called CE7-12-VHB-315-VLA; humanized variant 11) VH: QVQLVQSGAEVKKPGASVKVSCKASGYTFTGYWMHWVRQAPGQGLEWIGEINPSNGRTNYNERFQGRVTLTVDKSISTAYMELSRLRSDDTAVYYCARDYYGTSYNFDYWGQGTLVTVSS VL: EIVMTQSPATLSVSPGERATLSCKANEDINNRLAWYQQKPGQAPRLLISGATNLVTGIPARFSGSGSGKEYTLTISSLQSEDFAVYYCQQYWSTPFTFGQGTKLEIKR", "mg/L", 0.0148),
    ("CE7-variant16 (antibody, V domains shown, Human IgG1 kappa, L234A L235A P331S; also called CE7-434-VHA-133-VLB; humanized variant 16) VH: QVQLQQWGAGLLKPSETLSLTCAAYGYTFTGYWMHWIRQPPGKGLEWIGEINPSNGRTNYNERLKSRVTLSVDKSKNQASLKLSSVTAADTAVYFCARDYYGTSYNFDYWGQGTLVTVSS VL: DIQMTQSPSSLSASVGDRVTITCQANEDINNRLAWYQQKPGKAPKLLISGATNLVTGVPSRFSGSGSGKDYTFTISSLQPEDIATYYCQQYWSTPFTFGQGTKLEIKR", "mg/L", 0.0132),
    ("CE7-variant22 (antibody, V domains shown, CE7-1-2-VHC + CE7-1-NL1-VLB; human IgG1 kappa, L234A L235A P331S N297A (aglycosylated); also called humanized variant 22) VH: QVQLVQSGAEVKKPGASVKVSCKASGYTFTGYWMHWVRQAPGQGLEWIGEINPSNGRTNYNEKFQGRVTLTVDKSISTAYMELSRLRSDDTAVYYCARDYYGTSYNFDYWGQGTLVTVSS VL: DIQMTQSPSSLSASVGDRVTITCRANEDINNRLAWYQQKPGKAPKLLISGATNLVTGVPSRFSGSGSGKDYTLTISSLQPEDFATYYCQQYWSTPFTFGQGTKLEIKR", "mg/L", 0.024),
    ("LV1 (antibody, V domains shown, CE7-VH-chimeric-WH33Y + CE7-VL-chimeric; chimeric CE7, human IgG1 kappa, L234A L235A P331S N297A; also called liability variant 1) VH: QVQLQQPGAELVKPGASVKLSCKASGYTFTGYYMHWVKQRPGHGLEWIGEINPSNGRTNYNERFKSKATLTVDKSSTTAFMQLSGLTSEDSAVYFCARDYYGTSYNFDYWGQGTTLTVSS VL: DIQMTQSSSSFSVSLGDRVTITCKANEDINNRLAWYQQTPGNSPRLLISGATNLVTGVPSRFSGSGSGKDYTLTITSLQAEDFATYYCQQYWSTPFTFGSGTELEIKR", "mg/L", 0.0362),
    ("LV2 (antibody, V domains shown, CE7-VH-chimeric-WH33F + CE7-VL-chimeric; chimeric CE7, human IgG1 kappa, L234A L235A P331S N297A; also called liability variant 2) VH: QVQLQQPGAELVKPGASVKLSCKASGYTFTGYFMHWVKQRPGHGLEWIGEINPSNGRTNYNERFKSKATLTVDKSSTTAFMQLSGLTSEDSAVYFCARDYYGTSYNFDYWGQGTTLTVSS VL: DIQMTQSSSSFSVSLGDRVTITCKANEDINNRLAWYQQTPGNSPRLLISGATNLVTGVPSRFSGSGSGKDYTLTITSLQAEDFATYYCQQYWSTPFTFGSGTELEIKR", "mg/L", 0.0459),
    ("CE7-variant2 (antibody, V domains shown, Human IgG1 kappa, L234A L235A P331S; also called CE7-12-VHA-1NL1-VLB; humanized variant 2) VH: QVQLVQSGAEVKKPGASVKVSCKASGYTFTGYWMHWVRQAPGQGLEWIGEINPSNGRTNYNERFKSRVTLTVDKSISTAYMELSRLRSDDTAVYFCARDYYGTSYNFDYWGQGTLVTVSS VL: DIQMTQSPSSLSASVGDRVTITCRANEDINNRLAWYQQKPGKAPKLLISGATNLVTGVPSRFSGSGSGKDYTLTISSLQPEDFATYYCQQYWSTPFTFGQGTKLEIKR", "mg/L", 0.0128),
]
